assay-conditions: human
quantity-name: Hepatotoxicity (choleostasis)
Reply briefly: the number, and no unit.

I am curious: what Hepatotoxicity (choleostasis) value has been reported for CN(Cc1cc(Br)cc(Br)c1N)C1CCCCC1 [BROMHEXINE] ?
0

Also need CCCCC(CC)COC(=O)CC(C(=O)OCC(CC)CCCC)S(=O)(=O)O (centres undefined) [DOCUSATE] , thanks.
0

Also need CCCSc1ccc2nc(NC(=O)OC)[nH]c2c1 [ALBENDAZOLE] , thanks.
2

Also need COc1ccc2c(C(=O)c3ccc(Cl)cc3)c(C)n(CC(=O)O)c2c1 [CLOMETACIN] , thanks.
12

Also need CO/N=C(\C(=O)N[C@@H]1C(=O)N2C(C(=O)O)=C(COC(C)=O)CS[C@H]12)c1csc(N)n1 [CEFOTAXIME] , thanks.
2

Also need CCN1CC(CCN2CCOCC2)C(c2ccccc2)(c2ccccc2)C1=O (centres undefined) [DOXAPRAM] , thanks.
0

Also need O=C(O)c1cc(/N=N/c2ccc(O)c(C(=O)O)c2)ccc1O [OLSALAZINE] , thanks.
1

Also need COc1cc(NS(C)(=O)=O)ccc1Nc1c2ccccc2nc2ccccc12 [AMSACRINE] , thanks.
0

Also need CC(C)/N=c1\cc2n(-c3ccc(Cl)cc3)c3ccccc3nc-2cc1Nc1ccc(Cl)cc1 [CLOFAZIMINE] , thanks.
1

* * *

assay-text: Highest frequency of acute liver toxicity observed during clinical trials, expressed as a percentage. [column '% AIGUE' in source]
assay-conditions: human
Here, each record is paired with measured Hepatotoxicity (acute) data.
Express your answer in %, writing the number without its unit.

molecule	u	Hepatotoxicity (acute)
NS(=O)(=O)c1cc2c(cc1Cl)NC(C(Cl)Cl)NS2(=O)=O (stereo unspecified) [TRICHLORMETHIAZIDE]	%	0
CO[C@H]1Cc2c(O)cc(O)cc2O[C@@H]1c1ccc(O)c(O)c1	%	0
CCn1cc(C(=O)O)c(=O)c2cnc(N3CCNCC3)nc21	%	0

I am curious: what Hepatotoxicity (acute) value has been reported for C[C@@H]1C[C@H]2[C@@H]3CCC4=CC(=O)C=C[C@]4(C)C3=CC[C@]2(C)[C@H]1C(=O)CN1CCN(c2cc(N3CCCC3)nc(N3CCCC3)n2)CC1 ?
0

Also need C[C@@](O)(/C=C/[C@H]1CC=CC(=O)O1)[C@@H](C[C@@H](O)\C=C/C=C\C=C\CO)OP(=O)(O)O , thanks.
0

* * *

assay-text: Times to onset, minimal and maximal, observed in the indexed observations. [column 'DELAI' in source]
assay-conditions: human
Here, each record is paired with measured Hepatotoxicity (time to onset) data.

compound	quantity-name	assay-result
O=C(O)c1cc(=O)c2c(OCC(O)COc3cccc4oc(C(=O)O)cc(=O)c34)cccc2o1	Hepatotoxicity (time to onset)	4 months - 10 months

I am curious: what Hepatotoxicity (time to onset) value has been reported for CC(CN(C)C)CN1c2ccccc2CCc2ccccc21 (centres undefined) ?
2 weeks - 3 weeks

Also need COc1ccc2c3c1O[C@H]1[C@@H](O)C=C[C@H]4[C@@H](C2)N(C)CC[C@@]341 , thanks.
< 1 hour - 1.5 hours

Also need NC[C@H]1O[C@H](O[C@H]2[C@H](O)[C@@H](O[C@H]3O[C@H](CO)[C@@H](O)[C@H](N)[C@H]3O)[C@H](N)C[C@@H]2N)[C@H](N)C[C@@H]1O , thanks.
1 day - 3 weeks
